- Read-out: sulfotransferase 2A1 (SULT2A1), SULT2A1 (gene 6822)
- Protocol: LTEA_HepaRG_SULT2A1: Life Technologies and Expression Analysis (LTEA) Assay for sulfotransferase 2A1 (SULT2A1) using HepaRG (AID 2283531)
- Condition description: mRNA level, 48 h; actives raise or lower the signal
The source made the active and inactive calls. The calls were made as follows: active = hit-call score of the fitted dose curve at least 0.9, where 1 is the maximum; inactive = score below 0.9.
Labels: active, inactive

Compound	Qualitative label
O=C(CCCN1CCC(O)(c2ccc(Cl)cc2)CC1)c1ccc(F)cc1	active
CCCCC=O	inactive
CCC(C)c1ccccc1O (centres undefined)	inactive
Cc1[nH]nc2c1N=C(c1ccccc1Cl)c1cc([N+](=O)[O-])ccc1N2	active

* * *

- Read-out: Forkhead box O1 (FOXO1), FOXO1 (gene 2308)
- Protocol: LTEA_HepaRG_FOXO1: Life Technologies and Expression Analysis (LTEA) Assay for Forkhead box O1 (FOXO1) using HepaRG (AID 2283456)
- Condition description: mRNA level, 48 h; actives raise or lower the signal
Calls of active or inactive are those of the source. Rule for the calls: active = hit-call score of the fitted dose curve at least 0.9, where 1 is the maximum; inactive = score below 0.9.
Outcome codes: active, inactive

Smiles text	Qualitative label
O=C(c1ccccc1)c1ccccc1	inactive
OCC(CO)(CBr)CBr	inactive
Cc1[nH]nc2c1N=C(c1ccccc1Cl)c1cc([N+](=O)[O-])ccc1N2	active
O=C(CCCN1CCC(O)(c2ccc(Cl)cc2)CC1)c1ccc(F)cc1	active
CCCCc1oc2ccccc2c1C(=O)c1cc(I)c(OCCN(CC)CC)c(I)c1	inactive
O=C1NS(=O)(=O)c2ccccc21	inactive
CCCCCCCCCCCCOS(=O)(=O)O	inactive
N=C(N)c1ccc(OCCCCCOc2ccc(C(=N)N)cc2)cc1	active

* * *

- Read-out: Interferon-gamma inducible Protein 10 (IP10), CXCL10 (gene 3627)
- Protocol: BSK_hDFCGF_IP10: BioMAP Diversity Plus: hDFCGF Assay for Interferon-gamma inducible Protein 10 (IP10) Biomarker Activity (AID 2283053)
- Condition description: primary human foreskin fibroblasts; actives raise or lower the signal
The source made the active and inactive calls. The calls were made as follows: active = hit-call score of the fitted dose curve at least 0.9, where 1 is the maximum; inactive = score below 0.9.

Molecule	AC50
COC1=CC(=O)C[C@@H](C)[C@]12Oc1c(Cl)c(OC)cc(OC)c1C2=O	inactive
O=C1c2ccc(O)c(O)c2C(=O)c2c(O)ccc(O)c21	inactive
CCCCC(CC)C(=O)OCCOCCOCCOCCOC(=O)C(CC)CCCC (stereo unspecified)	inactive
O=C(O)CCC(F)(F)C(F)(F)C(F)(F)C(F)(F)C(F)(F)F	inactive
N=C(N)c1ccc(OCCCCCOc2ccc(C(=N)N)cc2)cc1	17.5 µM (active)
CC[N+](CC)(CC)Cc1ccccc1	inactive
CCCCCCCCCCCCCCCCCC[N+](C)(C)Cc1ccccc1	0.795 µM (active)
NC(=NCCCCCCN=C(N)/N=C(\N)Nc1ccc(Cl)cc1)/N=C(\N)Nc1ccc(Cl)cc1	8.17 µM (active)
Oc1cc2ccccc2cc1O	inactive
CCC(C)c1ccccc1O (stereo unspecified)	inactive
O=C(CCCN1CCC(O)(c2ccc(Cl)cc2)CC1)c1ccc(F)cc1	inactive
Clc1ccc(Nc2nnc(Cc3ccncc3)c3ccccc23)cc1	inactive
CCCCCCCCCCCCCCC	inactive
COCN(COC)c1nc(N(COC)COC)nc(N(COC)COC)n1	inactive
OCCN1CN(CCO)CN(CCO)C1	20 µM (active)
O=S(=O)(O)C(F)(F)C(F)(F)C(F)(F)C(F)(F)C(F)(F)C(F)(F)C(F)(F)C(F)(F)C(F)(F)C(F)(F)F	inactive

* * *

- Assayed target: Hepatocyte nuclear factor 4-alpha (Homo sapiens) (UniProt P41235)
- Sequence (P41235 whole entry, looked up): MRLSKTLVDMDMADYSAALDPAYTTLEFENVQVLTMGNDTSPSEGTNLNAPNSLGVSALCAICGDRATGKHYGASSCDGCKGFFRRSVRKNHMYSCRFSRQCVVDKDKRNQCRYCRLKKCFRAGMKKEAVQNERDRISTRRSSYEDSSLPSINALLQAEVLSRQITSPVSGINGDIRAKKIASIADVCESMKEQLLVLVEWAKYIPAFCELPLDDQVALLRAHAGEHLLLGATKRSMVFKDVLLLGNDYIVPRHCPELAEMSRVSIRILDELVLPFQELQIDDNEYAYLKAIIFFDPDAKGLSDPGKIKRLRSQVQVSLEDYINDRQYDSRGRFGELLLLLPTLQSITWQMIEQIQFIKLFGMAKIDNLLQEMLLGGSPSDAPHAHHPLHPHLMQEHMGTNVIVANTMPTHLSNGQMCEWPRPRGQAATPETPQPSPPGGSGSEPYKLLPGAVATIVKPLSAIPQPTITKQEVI
- Protocol: ATG_HNF4a_TRANS: Attagene TRANS-FACTORIAL HepG2 Assay for human Hepatocyte Nuclear Factor 4 alpha (HNF4a) (AID 2282982)
- Condition description: HepG2 HNF4a transactivation reporter, mRNA readout
Results filed as inconclusive are left out. Activity calls are given as the source filed them. Rule for the calls: active = hit-call score of the fitted dose curve at least 0.9, where 1 is the maximum; inconclusive = response in the unintended direction; inactive = score below 0.9.
Outcome codes: active, inactive

Compound	Assayed target	Qualitative label
CC(=O)Nc1ccc(S(N)(=O)=O)cc1	Hepatocyte nuclear factor 4-alpha (Homo sapiens) (UniProt P41235)	inactive
C=CC(=O)OCC(CO)(COCC(COC(=O)C=C)(COC(=O)C=C)COC(=O)C=C)COC(=O)C=C	Hepatocyte nuclear factor 4-alpha (Homo sapiens) (UniProt P41235)	inactive
CCCCCCCCCCCC[N+](C)(C)Cc1ccccc1	Hepatocyte nuclear factor 4-alpha (Homo sapiens) (UniProt P41235)	inactive
C=CC(=O)OCCC(F)(F)C(F)(F)C(F)(F)C(F)(F)C(F)(F)C(F)(F)C(F)(F)C(F)(F)F	Hepatocyte nuclear factor 4-alpha (Homo sapiens) (UniProt P41235)	inactive
NNc1nc(-c2ccc([N+](=O)[O-])cc2)cs1	Hepatocyte nuclear factor 4-alpha (Homo sapiens) (UniProt P41235)	inactive
Cc1cccc2c1ccc1ccccc12	Hepatocyte nuclear factor 4-alpha (Homo sapiens) (UniProt P41235)	inactive
O=C(F)C(F)(F)C(F)(F)C(F)(F)C(F)F	Hepatocyte nuclear factor 4-alpha (Homo sapiens) (UniProt P41235)	inactive
NNC(=O)CCCCC(=O)NN	Hepatocyte nuclear factor 4-alpha (Homo sapiens) (UniProt P41235)	inactive
Cc1cncc(C)c1	Hepatocyte nuclear factor 4-alpha (Homo sapiens) (UniProt P41235)	inactive
CC(C)(C)c1ccc(O)c(O)c1	Hepatocyte nuclear factor 4-alpha (Homo sapiens) (UniProt P41235)	inactive
CN(CCO)S(=O)(=O)C(F)(F)C(F)(F)C(F)(F)C(F)(F)C(F)(F)C(F)(F)C(F)(F)C(F)(F)F	Hepatocyte nuclear factor 4-alpha (Homo sapiens) (UniProt P41235)	inactive
CCOC=O	Hepatocyte nuclear factor 4-alpha (Homo sapiens) (UniProt P41235)	inactive
OCC(CO)(CBr)CBr	Hepatocyte nuclear factor 4-alpha (Homo sapiens) (UniProt P41235)	inactive
COC1=CC(=O)C[C@@H](C)[C@]12Oc1c(Cl)c(OC)cc(OC)c1C2=O	Hepatocyte nuclear factor 4-alpha (Homo sapiens) (UniProt P41235)	inactive
C[C@]12CC[C@@H]3c4ccc(O)cc4CC[C@H]3[C@@H]1C[C@@H](O)[C@@H]2O	Hepatocyte nuclear factor 4-alpha (Homo sapiens) (UniProt P41235)	inactive
Nc1ccn([C@@H]2O[C@H](CO)[C@@H](O)C2O)c(=O)n1 (stereo partly specified)	Hepatocyte nuclear factor 4-alpha (Homo sapiens) (UniProt P41235)	inactive
C/C=C/C(=O)C1=C(C)CCCC1(C)C	Hepatocyte nuclear factor 4-alpha (Homo sapiens) (UniProt P41235)	active
O=C(F)C(F)(F)C(F)(F)C(F)(F)C(=O)F	Hepatocyte nuclear factor 4-alpha (Homo sapiens) (UniProt P41235)	inactive
CCCCN(C)C	Hepatocyte nuclear factor 4-alpha (Homo sapiens) (UniProt P41235)	inactive
c1ccc(CNc2ncnc3c2ncn3C2CCCCO2)cc1 (stereo unspecified)	Hepatocyte nuclear factor 4-alpha (Homo sapiens) (UniProt P41235)	inactive
O=c1cc(-c2ccccc2)oc2ccc3ccccc3c12	Hepatocyte nuclear factor 4-alpha (Homo sapiens) (UniProt P41235)	inactive
O=S(=O)(O)C(F)(F)C(F)(F)C(F)(F)C(F)(F)C(F)(F)C(F)(F)C(F)(F)C(F)(F)C(F)(F)C(F)(F)F	Hepatocyte nuclear factor 4-alpha (Homo sapiens) (UniProt P41235)	inactive
O=C(OC(=O)C(F)(F)C(F)(F)F)C(F)(F)C(F)(F)F	Hepatocyte nuclear factor 4-alpha (Homo sapiens) (UniProt P41235)	inactive
CCC(=O)O	Hepatocyte nuclear factor 4-alpha (Homo sapiens) (UniProt P41235)	inactive
Cc1ccc(N=Nc2c(O)ccc3ccccc23)c(C)c1	Hepatocyte nuclear factor 4-alpha (Homo sapiens) (UniProt P41235)	inactive
CC[N+](CC)(CC)Cc1ccccc1	Hepatocyte nuclear factor 4-alpha (Homo sapiens) (UniProt P41235)	inactive
COc1ccc(C#N)cc1	Hepatocyte nuclear factor 4-alpha (Homo sapiens) (UniProt P41235)	inactive
CC(=O)CC(C)C	Hepatocyte nuclear factor 4-alpha (Homo sapiens) (UniProt P41235)	inactive
O=C(c1cc(O)c(O)c(O)c1)c1ccc(O)c(O)c1O	Hepatocyte nuclear factor 4-alpha (Homo sapiens) (UniProt P41235)	inactive
O=C(NCc1ncc(C(F)(F)F)cc1Cl)c1c(Cl)cccc1Cl	Hepatocyte nuclear factor 4-alpha (Homo sapiens) (UniProt P41235)	inactive
O=P(O)(O)CCC(F)(F)C(F)(F)C(F)(F)C(F)(F)C(F)(F)C(F)(F)F	Hepatocyte nuclear factor 4-alpha (Homo sapiens) (UniProt P41235)	inactive
O=C(CC(=O)C(F)(F)C(F)(F)C(F)(F)F)c1cccs1	Hepatocyte nuclear factor 4-alpha (Homo sapiens) (UniProt P41235)	inactive
O=CC(F)(F)C(F)(F)C(F)(F)F	Hepatocyte nuclear factor 4-alpha (Homo sapiens) (UniProt P41235)	inactive
CCO[Si](C)(C)OCC	Hepatocyte nuclear factor 4-alpha (Homo sapiens) (UniProt P41235)	inactive
CCc1cccc(CC)c1N(COC)C(=O)CS(=O)(=O)O	Hepatocyte nuclear factor 4-alpha (Homo sapiens) (UniProt P41235)	inactive
FC(F)(F)N1C(F)(F)C(F)(F)OC(F)(F)C1(F)F	Hepatocyte nuclear factor 4-alpha (Homo sapiens) (UniProt P41235)	inactive
